biological target: human orexin-1 receptor (Homo sapiens (Human), UniProt O43613); assay: In vitro assay: intracellular calcium measurements (FLIPR), antagonistic activity; format: cell-based; conditions: CHO cells, 3 nM orexin-A, compound incubation 120 min; marked values are geometric means of n = 2-6; read-out: IC50 OX1
Sequence (O43613 whole entry): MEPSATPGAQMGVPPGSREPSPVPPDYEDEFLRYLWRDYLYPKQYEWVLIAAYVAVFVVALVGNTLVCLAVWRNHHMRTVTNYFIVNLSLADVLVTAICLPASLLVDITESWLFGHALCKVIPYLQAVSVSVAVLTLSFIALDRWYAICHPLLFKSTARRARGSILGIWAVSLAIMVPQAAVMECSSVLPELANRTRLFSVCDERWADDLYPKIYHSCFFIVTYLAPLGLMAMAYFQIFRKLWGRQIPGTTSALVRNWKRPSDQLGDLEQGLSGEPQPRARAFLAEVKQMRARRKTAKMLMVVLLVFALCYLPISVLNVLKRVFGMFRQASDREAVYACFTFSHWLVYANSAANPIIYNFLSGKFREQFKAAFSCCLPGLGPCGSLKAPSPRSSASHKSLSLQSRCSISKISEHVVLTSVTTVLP
Quick reference: IC50 of the listed items.
Property measured: IC50 (nM)

Compound	Target entity	Property measured	Measurement units	Assay result
COc1cccc(OC)c1C1CCCCC(=O)N1Cc1ccnc(-c2ccccc2)c1 (stereo not drawn)	human orexin-1 receptor (Homo sapiens (Human), UniProt O43613)	IC50	nM	7
COc1cccc(OC)c1C1CCC(=O)N1Cc1cccc(-c2ccccc2)c1 (stereo not drawn)	human orexin-1 receptor (Homo sapiens (Human), UniProt O43613)	IC50	nM	29
COc1cccc(OC)c1C1CCCC(=O)N1Cc1cccc(-n2ccnc2)c1 (stereo not drawn)	human orexin-1 receptor (Homo sapiens (Human), UniProt O43613)	IC50	nM	136
COc1cccc(OC)c1C1CC(C)C(=O)N1Cc1cccc(OCC(F)F)c1 (stereo not drawn)	human orexin-1 receptor (Homo sapiens (Human), UniProt O43613)	IC50	nM	143
COc1cncc(OC)c1C1CCCC(=O)N1Cc1ccc2oc3ccccc3c2c1 (stereo not drawn)	human orexin-1 receptor (Homo sapiens (Human), UniProt O43613)	IC50	nM	6
COc1cccc(OC)c1C1CCCCC(=O)N1Cc1cccc(N2CCCC2)c1 (stereo not drawn)	human orexin-1 receptor (Homo sapiens (Human), UniProt O43613)	IC50	nM	3
O=C1CCCC(c2ccccc2-c2ccccc2)N1Cc1cccc(-c2ccccc2)c1 (stereo not drawn)	human orexin-1 receptor (Homo sapiens (Human), UniProt O43613)	IC50	nM	1450
COc1cccc(OC)c1C1CCC(=O)N1Cc1ccc2oc3ccccc3c2c1 (stereo not drawn)	human orexin-1 receptor (Homo sapiens (Human), UniProt O43613)	IC50	nM	14
COc1ccc(OC(F)(F)F)cc1CN1C(=O)C(C)CC1c1c(OC)cccc1OC (stereo not drawn)	human orexin-1 receptor (Homo sapiens (Human), UniProt O43613)	IC50	nM	532

###

biological target: human orexin-2 receptor (Homo sapiens (Human)); test: In vitro assay: intracellular calcium measurements (FLIPR), antagonistic activity; type: cell-based; settings: CHO cells, 3 nM orexin-A, compound incubation 120 min; marked values are geometric means of n = 2-6; read-out: IC50 OX2
Sequence (O43614 whole entry): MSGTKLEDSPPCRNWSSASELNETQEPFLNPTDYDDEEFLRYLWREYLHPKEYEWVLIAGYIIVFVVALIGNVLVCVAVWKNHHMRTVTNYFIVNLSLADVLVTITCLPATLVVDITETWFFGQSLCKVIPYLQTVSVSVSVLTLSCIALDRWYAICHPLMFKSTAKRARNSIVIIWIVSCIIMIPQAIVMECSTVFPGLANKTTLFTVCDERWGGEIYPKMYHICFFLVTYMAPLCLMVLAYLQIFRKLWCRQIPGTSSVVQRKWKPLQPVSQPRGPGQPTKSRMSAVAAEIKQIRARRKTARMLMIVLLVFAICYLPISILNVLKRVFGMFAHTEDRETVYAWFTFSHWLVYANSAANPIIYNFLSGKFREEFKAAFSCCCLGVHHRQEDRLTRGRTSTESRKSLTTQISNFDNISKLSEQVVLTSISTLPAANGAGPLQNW
Quick reference: IC50 of the listed items.
Property measured: IC50 (nM)

Molecule	Measurement units	Assay result
O=C1[C@H](O)C[C@@H](c2c(F)cccc2OCCF)N1Cc1ccc(OC(F)(F)F)cc1 (racemic)	nM	57
COc1cccc(OC)c1C1CCC(=O)N1Cc1nc2ccccc2s1 (centres unmarked)	nM	2050
COc1cccc(OC)c1C1CCCCC(=O)N1Cc1ccc(Oc2ccccc2)cc1 (centres unmarked)	nM	187
COc1cccc(OC)c1C1CCCC(=O)N1Cc1cccc(-c2ccccn2)c1 (centres unmarked)	nM	8
COc1ccnc(OC)c1C1CC(C)C(=O)N1Cc1cccc(-c2ncc(C)s2)c1 (centres unmarked)	nM	120
COc1ccc2c(c1C1CCCC(=O)N1Cc1cccc(-c3csc(C)n3)c1)OCO2 (centres unmarked)	nM	11
COc1cccc(OC)c1C1CCCCC(=O)N1Cc1ccc2c(c1)c1ccccc1n2C (centres unmarked)	nM	71
COc1cccc(OC)c1C1CCCC(=O)N1Cc1cnn(-c2ccccc2)c1 (centres unmarked)	nM	115
COc1ccc2ccccc2c1[C@@H]1C[C@@H](O)C(=O)N1Cc1ccc(OC(F)(F)F)cc1 (racemic)	nM	826
COc1ccnc(OC)c1C1CCCC(=O)N1Cc1ccc2nc(C)sc2c1 (centres unmarked)	nM	1530
COc1cccc(OC)c1C1CCCC(=O)N1Cc1cccc(N2CCCCC2)c1 (centres unmarked)	nM	46
COc1cccc(OC)c1C1CC(F)(F)C(=O)N1Cc1ccc2oc3ccccc3c2c1 (centres unmarked)	nM	19
COc1ccc2ccccc2c1[C@@H]1C[C@H](Cl)C(=O)N1Cc1ccc(OC(F)(F)F)cc1 (racemic)	nM	1040
COc1cccc(OC)c1C1CC(C)C(=O)N1Cc1ccnc(-c2ccccc2)c1 (centres unmarked)	nM	172
COc1cccc(OC)c1C1CC(C)C(=O)N1Cc1cccc(-c2ncccn2)c1 (centres unmarked)	nM	40
CCOc1cccc(CN2C(=O)C(C)CC2c2c(F)cccc2OCC)c1 (centres unmarked)	nM	25
COc1cncc(OC)c1C1CCCC(=O)N1Cc1cccc(-n2nccn2)c1 (centres unmarked)	nM	156
COc1cccc(OC)c1C1CC(C)C(=O)N1Cc1ccc2oc3ccccc3c2c1 (centres unmarked)	nM	5
COc1cccc(OC)c1C1CC(C)C(=O)N1Cc1ccc2[nH]ccc2c1 (centres unmarked)	nM	1780
CC1CC(c2ccccc2-c2ccccc2)N(Cc2ccc(OC(F)(F)F)cc2)C1=O (centres unmarked)	nM	457
COc1ccc2ccccc2c1C1CCCC(=O)N1Cc1cccc(Oc2ccccc2)c1 (centres unmarked)	nM	92
Cc1nc(-c2cccc(CN3C(=O)CCC3c3ccccc3-c3ccccc3)c2)cs1 (centres unmarked)	nM	462
COc1cccc(OC)c1C1CC(C)C(=O)N1Cc1ccc(OC(F)F)c(Cl)c1 (centres unmarked)	nM	155
O=C1CCCCC(c2ccccc2-c2cncs2)N1Cc1cccc(-c2nccs2)c1 (centres unmarked)	nM	19
COc1cccc(OC)c1C1CCC(=O)N1Cc1cccc(-c2ccccn2)c1 (centres unmarked)	nM	56
COc1ccnc(OC)c1C1CCCC(=O)N1Cc1cccc(-c2ccccn2)c1 (centres unmarked)	nM	95
O=C1CCCCC(c2ccccc2-c2cccnc2)N1Cc1cccc(-c2nccs2)c1 (centres unmarked)	nM	93
COc1cccc(OC)c1C1CCCC(=O)N1Cc1ccnc(-c2nccs2)c1 (centres unmarked)	nM	9
COc1cccc(OC)c1C1CCCC(=O)N1Cc1ccc2oc3ccccc3c2c1 (centres unmarked)	nM	4
COc1cccc(OC)c1C1CCCC(=O)N1Cc1cccc(-n2nccn2)c1 (centres unmarked)	nM	19
COc1cncc(OC)c1C1CCCCC(=O)N1Cc1ccc2c(c1)c1ccccc1n2C (centres unmarked)	nM	222
COc1cccc(F)c1C1CC(C)C(=O)N1Cc1cccc(-c2nc(Cl)cs2)c1 (centres unmarked)	nM	9
COc1cccc(OC)c1C1CCCCC(=O)N1Cc1cccc(-n2cccn2)n1 (centres unmarked)	nM	429
COc1ncnc(OC)c1C1CCCC(=O)N1Cc1cccc(-c2csc(C)n2)c1 (centres unmarked)	nM	619
COc1cccc(OC)c1C1CC(C)C(=O)N1Cc1ccc(SC(F)(F)F)cc1 (centres unmarked)	nM	428

###

Quick reference: IC50 of the listed items.
molecular target: human orexin-2 receptor (Homo sapiens (Human)); assay: In vitro assay: intracellular calcium measurements (FLIPR), antagonistic activity; type: cell-based; details: CHO cells, 3 nM orexin-A, compound incubation 120 min; marked values are geometric means of n = 2-6; read-out: IC50 OX2
Property measured: IC50

Compound	Target entity	Assay result
Cc1nc(-c2cccc(CN3C(=O)CCCC3c3cccc4c3OCCO4)c2)cs1 (centres unmarked)	human orexin-2 receptor (Homo sapiens (Human))	229 nM
COc1cccc(OC)c1C1CC(C)C(=O)N1Cc1ccc(F)c(-c2ccccn2)c1 (centres unmarked)	human orexin-2 receptor (Homo sapiens (Human))	122 nM
CCOc1cccc(F)c1C1CC(C)C(=O)N1Cc1ccc(OC(F)(F)F)c(F)c1 (centres unmarked)	human orexin-2 receptor (Homo sapiens (Human))	115 nM
COc1cccc(OC)c1C1CCCC(=O)N1Cc1cccc(-c2ccc(F)cc2)n1 (centres unmarked)	human orexin-2 receptor (Homo sapiens (Human))	142 nM
CC(C)Oc1cccc(F)c1[C@@H]1C[C@@H](O)C(=O)N1Cc1ccc(OC(F)(F)F)cc1 (racemic)	human orexin-2 receptor (Homo sapiens (Human))	77 nM
COc1ccnc(OC)c1C1CCCC(=O)N1Cc1cccc(-c2ccccc2)c1 (centres unmarked)	human orexin-2 receptor (Homo sapiens (Human))	34 nM
COc1cccc(OC)c1C1CCCCC(=O)N1Cc1ccnc(-n2cccn2)c1 (centres unmarked)	human orexin-2 receptor (Homo sapiens (Human))	86 nM
COc1ccc2nc(C)oc2c1C1CCCC(=O)N1Cc1cccc(-c2csc(C)n2)c1 (centres unmarked)	human orexin-2 receptor (Homo sapiens (Human))	62 nM

###

Quick reference: IC50 of the listed items.
target: human orexin-2 receptor (Homo sapiens (Human)); assay: In vitro assay: intracellular calcium measurements (FLIPR), antagonistic activity; format: cell-based; settings: CHO cells, 3 nM orexin-A, compound incubation time of 10 min; marked values are geometric means of n = 2-6; read-out: IC50 OX2
Property measured: IC50

Compound	Property measured	Assay result
COc1cccc(OC)c1[C@@H]1C[C@H](Cl)C(=O)N1Cc1ccc(OC(F)(F)F)cc1 (racemic) [Example 261]	IC50	0.041 µM
COc1cccc(OC)c1C1CCCC(=O)N1Cc1cccc(OC(F)F)n1 (stereo not shown) [Example 183]	IC50	0.064 µM
COc1cccc(OC)c1C1CCCC(=O)N1Cc1ccc(F)cc1 (stereo not shown) [Example 157]	IC50	0.231 µM
COc1cccc(OC)c1C1CCCCC(=O)N1Cc1ccc(OC(F)(F)F)cc1 (stereo not shown) [Example 193]	IC50	0.066 µM
COc1cccc(OC)c1C1CC(C)CC(=O)N1Cc1ccc(OC(F)(F)F)cc1 (stereo not shown) [Example 173]	IC50	0.297 µM
COc1cc(C)cc(OC)c1C1CCCC(=O)N1Cc1ccc(OC(F)(F)F)cc1 (stereo not shown) [Example 233]	IC50	0.107 µM
COc1cccc(OC)c1C1CCCC(=O)N1Cc1ccc2c(c1)OCO2 (stereo not shown) [Example 166]	IC50	0.549 µM
COc1cccc(OC)c1C1CCCC(=O)N1Cc1ccc(OCC2CC2)cc1 (stereo not shown) [Example 208]	IC50	0.039 µM
O=C1CCCC(c2ccccc2C(F)(F)F)N1Cc1ccc2ccccc2c1 (stereo not shown) [Example 239]	IC50	3.58 µM
COc1cccc(OC)c1C1CCCC(=O)N1Cc1ccc(OCCF)cc1 (stereo not shown) [Example 176]	IC50	0.061 µM
